Target: integrase (Human immunodeficiency virus type 1 group M subtype B)
recordedMetric: IC50 (nM)
Numbers only, in nM.

# example entries with known answers
| compound | IC50, nM |
| --- | --- |
| C[C@@H]1CCO[C@H]2Cn3cc(-c4ncc(Cc5ccc(F)cc5)s4)c(=O)c(O)c3C(=O)N12 [Example 1] | 3.9 |
| C[C@@H]1CCO[C@H]2Cn3cc(-c4nnc(Cc5ccc(F)cc5)s4)c(=O)c(O)c3C(=O)N12 [Example 3] | 3.8 |
| C[C@@H]1CCO[C@H]2Cn3cc(-c4ncc(Cc5ccc(F)cc5F)s4)c(=O)c(O)c3C(=O)N12 [Example 2] | 2 |

Here is the next item to consider.
Input: Can you look up the measured IC50 of C[C@@H]1CCO[C@H]2Cn3cc(-c4nnc(Cc5ccc(F)cc5F)s4)c(=O)c(O)c3C(=O)N12 [Example 4] for me?
Output: 1.3
